- Test system: Bacillus subtilis
- Run Description: Antibacterial activity against Bacillus subtilis
- Assay type: functional
Property Name: MIC (µg/mL)
All answers are understood in µg/mL, so give the number only.

Form field: reported MIC of C[C@H](C[C@H]1CC[C@@H]([C@H](C)Cn2cc(-c3ccccn3)nn2)O1)OC(=O)c1ccccc1 20

Further, for Br.COC(=O)CCC(=O)OC(C)CC1CCC(C(C)Cn2cc(-c3cccc(NC(C)=O)c3)nn2)O1 (racemic) ? 180

What do we get for CC(CC1CCC(C(C)Cn2cc(-c3ccccn3)nn2)O1)OC(=O)c1ccccc1 (racemic) ? 40

Would you kindly repeat that for COC(=O)CCC(=O)O[C@H](C)C[C@H]1CC[C@@H]([C@H](C)Cn2cc(-c3cccc(NC(C)=O)c3)nn2)O1 ? 91

Cited source: ChEMBL document CHEMBL1255550
